Assay: clinical
Set-up: species or system patients
Settings: human, in vivo, po, Levodopa plasmatic levels
measuredEndpoint: concentration at 100 min (ng/mL)
Enter your answer as a number in ng/mL; do not include the unit.

Please give the measured concentration at 100 min for this molecule: N[C@@H](Cc1ccc(O)c(O)c1)C(=O)O [levodopa, (-)-3-(3,4-dihydroxyphenyl)-L-alanine] 1170

====

Assay: clinical
Design: species or system patients
Details: human, in vivo, po, Levodopa plasmatic levels
measuredEndpoint: concentration at 0.25 h (ng/mL)
Enter your answer as a number in ng/mL; do not include the unit.

Please give the measured concentration at 0.25 h for this molecule: N[C@@H](Cc1ccc(O)c(O)c1)C(=O)O [levodopa, (-)-3-(3,4-dihydroxyphenyl)-L-alanine] 310

====

Assay: clinical
Set-up: species or system patients
Conditions: human, in vivo, po, Levodopa plasmatic levels
measuredEndpoint: concentration at 160 min (ng/mL)
Enter your answer as a number in ng/mL; do not include the unit.

Please give the measured concentration at 160 min for this compound: N[C@@H](Cc1ccc(O)c(O)c1)C(=O)O [levodopa, (-)-3-(3,4-dihydroxyphenyl)-L-alanine] 820

====

Assay: clinical
Parameters: species or system patients
Conditions: human, in vivo, po, Levodopa plasmatic levels
measuredEndpoint: concentration at 2 h (ng/mL)
Enter your answer as a number in ng/mL; do not include the unit.

Please give the measured concentration at 2 h for this compound: N[C@@H](Cc1ccc(O)c(O)c1)C(=O)O [levodopa, (-)-3-(3,4-dihydroxyphenyl)-L-alanine] 930

====

Assay: clinical
Set-up: species or system patients
Details: human, in vivo, po, Levodopa plasmatic levels
measuredEndpoint: concentration at 140 min (ng/mL)
Enter your answer as a number in ng/mL; do not include the unit.

Please give the measured concentration at 140 min for this compound: N[C@@H](Cc1ccc(O)c(O)c1)C(=O)O [levodopa, (-)-3-(3,4-dihydroxyphenyl)-L-alanine] 1030

====

Assay: clinical
Parameters: species or system patients
Details: human, in vivo, po, Levodopa plasmatic levels
measuredEndpoint: concentration at 1 h (ng/mL)
Enter your answer as a number in ng/mL; do not include the unit.

Please give the measured concentration at 1 h for this compound: N[C@@H](Cc1ccc(O)c(O)c1)C(=O)O [levodopa, (-)-3-(3,4-dihydroxyphenyl)-L-alanine] 1130

====

Assay: clinical
Design: species or system patients
Details: human, in vivo, po, Levodopa plasmatic levels
From the text: The pharmaceutical composition as per Example 1 above has been orally administered to parkinsonian patients manifesting the on-off phenomenon, in order to evaluate the bioavailability and the clinical effect of LDME in this formulation in comparison with levodopa. […]
measuredEndpoint: concentration at 4.5 h (ng/mL)
Enter your answer as a number in ng/mL; do not include the unit.

Please give the measured concentration at 4.5 h for this compound: N[C@@H](Cc1ccc(O)c(O)c1)C(=O)O [levodopa, (-)-3-(3,4-dihydroxyphenyl)-L-alanine] 350

====

Experiment: clinical
Design: species or system patients
Conditions: human, in vivo, po, Levodopa plasmatic levels
measuredEndpoint: concentration at 0.75 h (ng/mL)
Enter your answer as a number in ng/mL; do not include the unit.

Please give the measured concentration at 0.75 h for this compound: N[C@@H](Cc1ccc(O)c(O)c1)C(=O)O [levodopa, (-)-3-(3,4-dihydroxyphenyl)-L-alanine] 1410
